# Lookup of reported IC50 keyed by entry
- test_system: CDK4/cyclin D3 (Homo sapiens)
- Sequence (P11802 whole entry): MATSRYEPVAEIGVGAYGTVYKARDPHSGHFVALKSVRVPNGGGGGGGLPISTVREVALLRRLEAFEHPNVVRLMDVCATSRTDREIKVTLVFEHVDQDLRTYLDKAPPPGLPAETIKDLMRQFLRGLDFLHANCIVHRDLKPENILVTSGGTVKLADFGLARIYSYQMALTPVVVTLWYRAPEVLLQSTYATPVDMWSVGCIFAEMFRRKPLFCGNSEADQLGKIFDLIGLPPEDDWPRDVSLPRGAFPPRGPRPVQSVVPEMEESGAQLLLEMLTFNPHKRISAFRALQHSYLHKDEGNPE
- Sequence (P30281 whole entry partner): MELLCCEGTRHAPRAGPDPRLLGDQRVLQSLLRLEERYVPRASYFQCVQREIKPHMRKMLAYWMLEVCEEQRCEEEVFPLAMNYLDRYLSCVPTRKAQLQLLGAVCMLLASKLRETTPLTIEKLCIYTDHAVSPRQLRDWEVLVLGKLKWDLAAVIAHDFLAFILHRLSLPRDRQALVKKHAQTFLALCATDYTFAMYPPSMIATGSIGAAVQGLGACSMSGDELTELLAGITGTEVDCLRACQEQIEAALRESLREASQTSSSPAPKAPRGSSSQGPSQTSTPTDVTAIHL
- protocol_summary: Human CDK4/cyclin D3 inhibitory activity (QS S Assist CDK4/Cyclin D3_FP Kit, IMAP fluorescent polarization)
- run_conditions: read-out: CDK4 Activity symbol

Please review the following examples before continuing.
{"compound": "C[C@@H](O)c1cc2cnc(Nc3ccc4c(n3)CCN(C(=O)[C@H]3C[C@H](O)CN3)C4)nc2c(N2CCCCC2)n1 [Compound 212]", "experimental_value": "< 10 nM"}
{"compound": "C[C@@H](O)c1cc2cnc(Nc3ccc4c(n3)CCN(C(=O)C3CCNCC3)C4)nc2c(N2CCCCC2)n1 [Compound 147]", "experimental_value": "< 10 nM"}
{"compound": "COCc1cc2cnc(Nc3ccc(N4CCNCC4)cn3)nc2c(N2CCOCC2)n1 [Compound 32]", "experimental_value": "10 to 100 nM"}

stdin: State the measured IC50 (CDK4/cyclin D3 (Homo sapiens)) of CC(O)c1cc2cnc(Nc3ccc(CN4CCN(CCO)CC4)cn3)nc2c(N2C3CCC2COC3)n1 (stereo not drawn) [Compound 295]
stdout: < 10 nM

stdin: State the measured IC50 (CDK4/cyclin D3 (Homo sapiens)) of C[C@@H](O)c1cc2cnc(Nc3ccc4c(n3)CCN(CCO)C4)nc2c(N2CCC(F)(F)CC2)n1 [Compound 81]
stdout: < 10 nM

====

# Lookup of reported IC50 keyed by entry
- test_system: CDK4/cyclin D3 (Homo sapiens)
- protocol_summary: Human CDK4/cyclin D3 inhibitory activity (QS S Assist CDK4/Cyclin D3_FP Kit, IMAP fluorescent polarization)
- run_conditions: read-out: CDK4 Activity symbol

{"molecule": "C[C@@H](O)c1cc2cnc(Nc3ccc(CN4CCN(CCO)CC4)cn3)nc2c(N2CCC(C(=O)O)CC2)n1 [Compound 76]", "experimental_value": "< 10 nM"}

stdin: Give the value of IC50 reported for the following: C[C@@H](O)c1cc2cnc(Nc3ccc(N4CC5(C4)CN(C4COC4)C5)nn3)nc2c(N2CCCCC2)n1 [Compound 324]
stdout: < 10 nM

stdin: Give the value of IC50 reported for the following: CNC(=O)c1cc2cnc(Nc3ccc(N4CCNCC4)cn3)nc2c(N2CCCCC2)n1 [Compound 29]
stdout: 10 to 100 nM

stdin: Give the value of IC50 reported for the following: OCCc1cc2cnc(Nc3ccc4c(n3)CCNC4)nc2c(N2CCCCC2)n1 [Compound 95]
stdout: 10 to 100 nM

stdin: Give the value of IC50 reported for the following: C[C@@H](O)c1cc2cnc(Nc3ccc(C(=O)N4CCOCC4)cn3)nc2c(N2CCCCC2)n1 [Compound 310]
stdout: < 10 nM

stdin: Give the value of IC50 reported for the following: C[C@@H](O)c1cc2cnc(Nc3ccc(N4CCNCC4=O)cn3)nc2c(N2CCOC[C@@H]2C)n1 [Compound 299]
stdout: 10 to 100 nM

stdin: Give the value of IC50 reported for the following: C[C@@H](O)c1cc2cnc(Nc3ccc(O[C@H]4CCCNC4)cn3)nc2c(N2CCCCC2)n1 [Compound 241]
stdout: < 10 nM

stdin: Give the value of IC50 reported for the following: C[C@@H](O)c1cc2cnc(Nc3ccc4c(n3)CCN(C(=O)CN3CCCC3)C4)nc2c(N2C3CCC2CC3)n1 [Compound 228]
stdout: < 10 nM

stdin: Give the value of IC50 reported for the following: C[C@@H](O)c1cc2cnc(Nc3ccc4c(n3)CCN(CCO)C4)nc2c(N2CCCCC2)n1 [Compound 111]
stdout: < 10 nM

stdin: Give the value of IC50 reported for the following: C[C@@H](O)c1cc2cnc(Nc3ccc(O[C@@H]4CCN(CCO)C[C@@H]4F)cn3)nc2c(N2CCCCC2)n1 [Compound 132]
stdout: < 10 nM

stdin: Give the value of IC50 reported for the following: CC(O)c1cc2cnc(Nc3ccc(CN4CCN(C)CC4C)cn3)nc2c(N2CCCCC2)n1 (centres unmarked) [Compound 152]
stdout: < 10 nM

stdin: Give the value of IC50 reported for the following: CC[C@@H](O)c1cc2cnc(Nc3ccc(CN4CCN(CCO)CC4)cn3)nc2c(N2CCC[C@H]2C)n1 [Compound 247]
stdout: < 10 nM

stdin: Give the value of IC50 reported for the following: CC(O)c1cc2cnc(Nc3ccc(N4CCNCC4=O)cn3)nc2c(N2CCCCC2C)n1 (centres unmarked) [Compound 303]
stdout: < 10 nM

stdin: Give the value of IC50 reported for the following: CO[C@H](C)c1cc2cnc(Nc3ccc(N4CCNCC4)nn3)nc2c(N2CCC(F)CC2)n1 [Compound 126]
stdout: < 10 nM
